Tested on: Staphylococcus aureus strain ATCC 6538
Assay: MIC determination by twofold dilution in microplates against Staphylococcus aureus
Format: cell-based
Conditions: Staphylococcus aureus, ATCC6538; S. aureus ATCC 6538; 24 hours at 30° C.; interval a-b (a highest concentration with growth, b lowest with 100% growth inhibition); triplicate; read-out: MIC
measured-metric: MIC

molecule	val
CCCOC(=O)c1ccc(O)cc1 [Propyl paraben, reference compound]	278 to 556 µM
CCOC(=O)c1ccc(O)cc1 [Compound 1, 4-Hydroxy-benzoic acid ethyl ester]	> 602 µM
CC(C)CCCCCCCCOC(=O)c1ccc(O)cc1	42.8 to 85.6 µM
CCCCCCCCOC(=O)c1ccc(O)cc1 [Compound 3, 4-Hydroxy-benzoic acid octyl ester]	100 to 200 µM
CCCCCCCCCCOC(=O)c1ccc(O)cc1 [Compound 4, 4-Hydroxy-benzoic acid decyl ester]	2.8 to 5.6 µM
CC(C)CCCCCC(O)CCOC(=O)c1ccc(O)cc1 (stereo not shown)	40.5 to 81.1 µM
CCCCCC/C=C/CCCCOC(=O)c1ccc(O)cc1	20.5 to 41.1 µM
CCCCCCCC(O)CCOC(=O)c1ccc(O)cc1 (stereo not shown)	85 to 170 µM
COC(=O)c1ccc(O)cc1 [Methyl paraben, reference compound]	329 to 658 µM
CCCCCCCCCCCCOC(=O)c1ccc(O)cc1 [Compound 8, 4-Hydroxy-benzoic acid dodecyl ester]	81.6 to 163 µM

----------
Tested on: Staphylococcus aureus strain ATCC 6538
Test: MIC determination by twofold dilution in microplates against Staphylococcus aureus
Type: cell-based
Settings: Staphylococcus aureus, ATCC6538; S. aureus ATCC 6538; 24 hours at 30° C.; interval a-b; triplicate; read-out: MIC
Some molecules, each annotated with its measured MIC.
measured-metric: MIC

molecule	target-of-assay	measured-metric	val
CC(C)CCCCCCCCOC(=O)c1ccc(O)cc1	Staphylococcus aureus strain ATCC 6538	MIC	12.5 to 25 µg/mL
CCCCCCCC(O)CCOC(=O)c1ccc(O)cc1 (centres unmarked)	Staphylococcus aureus strain ATCC 6538	MIC	25 to 50 µg/mL
CCCCCCCCOC(=O)c1ccc(O)cc1 [Compound 3, 4-Hydroxy-benzoic acid octyl ester]	Staphylococcus aureus strain ATCC 6538	MIC	25 to 50 µg/mL
CCCCCC/C=C/CCCCOC(=O)c1ccc(O)cc1	Staphylococcus aureus strain ATCC 6538	MIC	6.25 to 12.5 µg/mL
CCOC(=O)c1ccc(O)cc1 [Compound 1, 4-Hydroxy-benzoic acid ethyl ester]	Staphylococcus aureus strain ATCC 6538	MIC	> 100 µg/mL
